target: hERG (Homo sapiens (Human)); test: Biochemical hERG inhibition test (Predictor hERG fluorescence polarization kit); type: binding; settings: competition with Tracer, tested at 10 μM and 1 μM
Sequence (Q12809 whole entry): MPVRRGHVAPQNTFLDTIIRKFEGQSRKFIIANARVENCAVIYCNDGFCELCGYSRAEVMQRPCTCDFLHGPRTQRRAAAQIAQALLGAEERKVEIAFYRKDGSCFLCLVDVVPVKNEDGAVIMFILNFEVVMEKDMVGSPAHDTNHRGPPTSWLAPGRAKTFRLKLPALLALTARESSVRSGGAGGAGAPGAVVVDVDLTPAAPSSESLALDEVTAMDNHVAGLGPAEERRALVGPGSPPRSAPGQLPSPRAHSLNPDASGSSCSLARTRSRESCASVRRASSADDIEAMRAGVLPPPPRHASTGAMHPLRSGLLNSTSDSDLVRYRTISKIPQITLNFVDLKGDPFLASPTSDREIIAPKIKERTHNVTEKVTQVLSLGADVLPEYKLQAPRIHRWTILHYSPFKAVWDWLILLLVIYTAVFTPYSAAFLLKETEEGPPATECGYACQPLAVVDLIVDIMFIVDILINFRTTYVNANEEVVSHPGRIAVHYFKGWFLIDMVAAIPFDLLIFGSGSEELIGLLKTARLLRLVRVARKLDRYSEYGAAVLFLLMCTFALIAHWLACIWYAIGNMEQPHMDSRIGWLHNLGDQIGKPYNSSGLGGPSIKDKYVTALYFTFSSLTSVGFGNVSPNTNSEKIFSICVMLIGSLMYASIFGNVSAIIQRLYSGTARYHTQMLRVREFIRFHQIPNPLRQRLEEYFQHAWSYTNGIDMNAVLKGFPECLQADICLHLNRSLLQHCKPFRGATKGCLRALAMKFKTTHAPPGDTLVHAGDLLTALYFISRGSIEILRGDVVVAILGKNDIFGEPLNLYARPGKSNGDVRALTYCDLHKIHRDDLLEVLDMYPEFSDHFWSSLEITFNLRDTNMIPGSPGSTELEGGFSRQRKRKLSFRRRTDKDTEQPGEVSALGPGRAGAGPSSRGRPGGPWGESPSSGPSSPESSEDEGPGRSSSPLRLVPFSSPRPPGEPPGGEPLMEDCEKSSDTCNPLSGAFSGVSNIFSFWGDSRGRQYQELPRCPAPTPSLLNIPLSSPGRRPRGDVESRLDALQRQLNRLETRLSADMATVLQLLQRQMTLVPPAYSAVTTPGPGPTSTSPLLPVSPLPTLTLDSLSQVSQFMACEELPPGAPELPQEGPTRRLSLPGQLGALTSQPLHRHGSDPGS
propertyMeasured: IC50

Value of IC50 reported for the compound Cc1cccc(-n2nccc2-c2ccc3ncsc3c2)n1 is > 10 µM

---

Exercise: state measured bioavailability for each of the compounds provided.
Assay: Pharmacokinetics (PK) study in Balb/c mice
Format: in vivo
Conditions: mouse, whole blood; female Balb/c mice, PO 10 mg/kg compared with IV 1 mg/kg; read-out: F (bioavailability)
Experimental: The example compounds were administered to female Balb/c mice via intravenous injection (IV) and gastric perfusion (PO), respectively, and their pharmacokinetic properties were investigated. […] Whole blood samples were processed by precipitating proteins and then subjected to LC-MS/MS analysis. The pharmacokinetic parameters were calculated by the non-compartmental model using WinNonlin 6.3 software, and the results were shown in Table 6 below.
Give just the numeric value; % need not be written.

Value of bioavailability reported for the compound CNc1cc(-c2ccn3ncc(C(N)=O)c3c2)n(-c2cccc(C)n2)n1 is 98.1

Value of bioavailability reported for the compound Cc1cccc(-n2nccc2-c2ccn3ncc(C(N)=O)c3c2)n1 is 52.1
